As shown below, each of these compounds has a reported melting point value.

>>> reading("CN1CCN(c2cccc(Cl)c2CC2OCCN(c3ccc(C(C)(C)C)cc3)C2=O)CC1.Cl (racemic)")
"215 °C (dec.)"
>>> reading("CN1CCN(c2ccccc2CC2OCCN(c3ccc(C(C)(C)C)cc3)C2=O)CC1.Cl (single isomer, unassigned) [Example 24 (−)]")
"187.1 to 191.2 °C"
>>> reading("CN1CCN(c2c(F)cccc2CC2OCCN(c3ccc(C(C)(C)C)cc3)C2=O)CC1.Cl (stereo not drawn) [Example 30 (+)]")
"104.7 °C (dec.)"
>>> reading("CC1CN(c2ccccc2C=C2OCCN(c3ccc(C(C)(C)C)cc3)C2=O)CC(C)N1C (centres unmarked)")
"167 to 168 °C"
>>> reading("CN1CCN(c2cccc(F)c2CC2OCCN(c3ccc(C(C)(C)C)cc3)C2=O)CC1.Cl (racemic) [Example 28 (±)]")
"190.5 to 192.1 °C"

Inquiry: # query: melting point of entry CN1CCN(c2c(F)cccc2CC2OCCN(c3ccc(C(C)(C)C)cc3)C2=O)CC1.Cl (racemic) [Example 30 (±)]
Reply text: 107 to 108.7 °C

Inquiry: # query: melting point of entry `CN1CCN(c2ccccc2C=C2OCCN(Cc3ccc(C(C)(C)C)cc3)C2=O)CC1`
Reply text: 68 to 70 °C

Inquiry: # query: melting point of entry `CN1CCN(c2cc(C(F)(F)F)ccc2C=C2OCCN(c3ccc(C(C)(C)C)cc3)C2=O)CC1`
Reply text: 186.3 to 191.9 °C

* * *

PROPERTY NAME: melting point

>>> reading("CN1CCN(c2cc(Cl)ccc2CC2OCCN(c3ccc(C(C)(C)C)cc3)C2=O)CC1.Cl (stereo not drawn) [Example 27 (+)]")
"159.5 to 161.7 °C"

Inquiry: # query: melting point of entry CN1CCN(c2cc(Cl)ccc2CC2OCCN(c3ccc(C(C)(C)C)cc3)C2=O)CC1.Cl (stereo not drawn) [Example 27 (−)]
Reply text: 159 to 161.8 °C

Inquiry: # query: melting point of entry CN1CCN(c2ccccc2C=C2OCCN(c3ccc(C(C)(C)C)cc3)C2=O)CC1 [Example 5]
Reply text: 169 to 171 °C
